Data origin: ChEMBL document CHEMBL1135255

Collected inhibition values appear next to each entry.
Target: Beta-lactamase 1 (Bacillus cereus) (UniProt P00809)
Sequence (whole entry): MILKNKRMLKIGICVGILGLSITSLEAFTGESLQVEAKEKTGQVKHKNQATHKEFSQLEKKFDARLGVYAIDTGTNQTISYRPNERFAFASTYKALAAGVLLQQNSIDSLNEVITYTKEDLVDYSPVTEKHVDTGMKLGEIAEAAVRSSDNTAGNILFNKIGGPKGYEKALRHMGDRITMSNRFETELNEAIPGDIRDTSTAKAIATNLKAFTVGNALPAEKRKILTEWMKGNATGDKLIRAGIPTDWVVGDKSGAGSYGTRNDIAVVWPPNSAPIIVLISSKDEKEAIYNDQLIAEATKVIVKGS
Assay: Inhibitory activity at beta-lactamase I from Bacillus cereus expressed as percent inhibition of beta-lactam hydrolysis at a concentration of 100.0 umol/L
observation_type: inhibition (%)

compound	test_value
CC1(C)[C@H](C(=O)O)N2C(=O)C[C@H]2S1(=O)=O	77
O=C(O)[C@H]1/C(=C/CO)O[C@@H]2CC(=O)N21	78
C/C=C1/C(=O)N2C(C(=O)O)=C3CCCCC3[C@@H]12 (some centres undefined)	61
C/C=C1/C(=O)N2C(C(=O)O)=C3CCSCC3[C@@H]12 (some centres undefined)	60

====

target: Beta-lactamase class C (Enterobacter cloacae); test: The compound was tested for its inhibitory activity towards Class C beta-lactamase from Enterobacter cloacae 908R at 0.8 umol concentration
Sequence (Q59401 whole entry): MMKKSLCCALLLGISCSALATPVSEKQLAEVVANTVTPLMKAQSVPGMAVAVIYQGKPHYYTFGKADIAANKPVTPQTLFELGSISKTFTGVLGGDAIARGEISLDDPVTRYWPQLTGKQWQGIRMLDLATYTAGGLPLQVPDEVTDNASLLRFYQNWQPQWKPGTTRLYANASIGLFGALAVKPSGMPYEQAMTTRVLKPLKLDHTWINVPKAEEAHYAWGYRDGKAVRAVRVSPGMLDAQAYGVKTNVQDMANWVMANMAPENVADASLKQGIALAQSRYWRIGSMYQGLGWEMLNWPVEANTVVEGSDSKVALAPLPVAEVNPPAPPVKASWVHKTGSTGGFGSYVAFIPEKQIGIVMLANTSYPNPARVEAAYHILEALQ
pIC50: −log10 of the molar value.

compound	pIC50
C/C=C1/C(=O)N2C(C(=O)O)=C3CCSCC3[C@H]12 (some centres undefined)	5.38
C/C=C1/C(=O)N2C(C(=O)O)=C3CCCCC3[C@@H]12 (some centres undefined)	5.52
C/C=C1/C(=O)N2C(C(=O)[O-])=C3CCCCC3[C@H]12.[Na+] (some centres undefined)	5.74
C/C=C1/C(=O)N2C(C(=O)O)=C3CCSCC3[C@@H]12 (some centres undefined)	5.30

====

target: Beta-lactamase 1 (Bacillus cereus) (UniProt P00809); experiment: Inhibitory activity at beta-lactamase I from Bacillus cereus expressed as percent inhibition of beta-lactam hydrolysis at a concentration of 10.0 umol/L
The entries below are paired with their reported inhibition.

compound	inhibition
CC1(C)[C@H](C(=O)O)N2C(=O)C[C@H]2S1(=O)=O	40%
C/C=C1/C(=O)N2C(C(=O)O)=C3CCSCC3[C@@H]12 (some centres undefined)	19%
O=C(O)[C@H]1/C(=C/CO)O[C@@H]2CC(=O)N21	33%
C/C=C1/C(=O)N2C(C(=O)O)=C3CCCCC3[C@@H]12 (some centres undefined)	14%

====

Target: Beta-lactamase 1 (Bacillus cereus)
Sequence (whole entry): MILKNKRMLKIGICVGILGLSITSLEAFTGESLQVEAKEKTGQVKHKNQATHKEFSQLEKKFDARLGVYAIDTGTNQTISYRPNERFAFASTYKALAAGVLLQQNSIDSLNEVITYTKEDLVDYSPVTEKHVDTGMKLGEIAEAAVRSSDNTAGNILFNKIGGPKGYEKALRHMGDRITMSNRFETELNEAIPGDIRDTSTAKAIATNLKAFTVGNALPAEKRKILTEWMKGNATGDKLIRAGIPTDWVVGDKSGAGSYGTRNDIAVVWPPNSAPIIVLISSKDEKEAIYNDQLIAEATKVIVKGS
Test: Inhibitory activity at beta-lactamase I from Bacillus cereus expressed as percent inhibition of beta-lactam hydrolysis at a concentration of 100.0 umol/L; The inhibitory activity at lower concentrations was not determined
observation_type: inhibition (%)

compound	observation_type	test_value
C[C@@H](O)[C@H]1C(=O)N2C(C(=O)O)=C3CCCCC3[C@@H]12 (some centres undefined)	inhibition	3
C/C=C1/C(=O)N2C(C(=O)O)=C3CCSCC3[C@H]12 (some centres undefined)	inhibition	38
C/C=C1/C(=O)N2C(C(=O)[O-])=C3CCCCC3[C@H]12.[Na+] (some centres undefined)	inhibition	23
C[C@@H](O)[C@H]1C(=O)N2C(C(=O)O)=C3CCCCC3[C@H]12 (some centres undefined)	inhibition	5

====

biological target: Beta-lactamase TEM (Escherichia coli); assay: The compound was tested for its inhibitory activity towards Class A TEM-1 beta-lactamase from Escherichia coli at 0.3 umol; conditions: read-out: IC50
Sequence (P62593 whole entry): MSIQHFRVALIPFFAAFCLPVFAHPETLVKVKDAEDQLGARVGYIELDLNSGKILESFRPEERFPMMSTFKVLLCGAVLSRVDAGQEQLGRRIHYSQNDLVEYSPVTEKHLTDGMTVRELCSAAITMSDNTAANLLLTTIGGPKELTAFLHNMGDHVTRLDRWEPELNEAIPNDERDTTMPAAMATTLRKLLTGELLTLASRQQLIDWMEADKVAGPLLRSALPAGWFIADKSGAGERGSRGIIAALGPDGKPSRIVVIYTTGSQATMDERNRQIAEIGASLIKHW
pIC50: −log10 of the molar value.
Reported pIC50 values for a set of molecules
observation_type: pIC50

molecule	observation_type	test_value
C/C=C1/C(=O)N2C(C(=O)O)=C3CCSCC3[C@H]12 (stereo partly drawn)	pIC50	4.00
C/C=C1/C(=O)N2C(C(=O)O)=C3CCCCC3[C@@H]12 (stereo partly drawn)	pIC50	4.41
C/C=C1/C(=O)N2C(C(=O)O)=C3CCSCC3[C@@H]12 (stereo partly drawn)	pIC50	4.49
